# TESTED_TARGET: human recombinant CBL-b (human Biotin CBL-b recombinant protein a.a. 39-426) (Homo sapiens)
# Construct: human Biotin CBL-b recombinant protein a.a; 39-426; Biotin (biotinylated)
# Sequence (Q13191 39-426): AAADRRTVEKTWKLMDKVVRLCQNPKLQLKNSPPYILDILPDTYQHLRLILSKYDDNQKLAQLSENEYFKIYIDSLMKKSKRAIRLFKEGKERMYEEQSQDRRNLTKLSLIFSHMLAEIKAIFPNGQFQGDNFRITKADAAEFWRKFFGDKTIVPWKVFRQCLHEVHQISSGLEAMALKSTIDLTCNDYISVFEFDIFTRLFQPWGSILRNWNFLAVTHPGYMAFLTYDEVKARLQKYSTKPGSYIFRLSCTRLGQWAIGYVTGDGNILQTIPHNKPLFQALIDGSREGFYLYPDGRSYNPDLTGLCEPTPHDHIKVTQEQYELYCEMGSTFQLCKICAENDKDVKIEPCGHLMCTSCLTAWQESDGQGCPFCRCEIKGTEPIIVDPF
# MEASUREMENT_DESCRIPTION: Biochemical assay for CBL-b inhibition (ligand displacement TR-FRET)
# CONDITION_CONTEXT: 50 nM CBL-b, 0.3 μM Bodipy FL-Probe, read-out: IC50 (CBL-b inhibition, group)
pIC50: −log10 of the molar value.
Would you mind telling me the reported pIC50 of each entry?

For the molecule Cc1cc(CNCC2CC2)cc(N2Cc3ccc(-c4c(F)cc(F)cc4-c4nncn4C)cc3C2=O)n1 , give its reported pIC50.
> 7.10

For the molecule Cc1cc(CN2C[C@H](C)C[C@H](C)C2)cc(N2Cc3ccc(C4(Cc5nncn5C)COC4)cc3C2=O)n1 , give its reported pIC50.
> 7.10

For the molecule CCCNCc1cc(C)nc(N2Cc3ccc(-c4ccc(F)cc4-c4nncn4C)cc3C2=O)c1 , give its reported pIC50.
> 7.10

For the molecule C[C@@H](Cc1nncn1C)c1ccc2c(c1)C(=O)N(c1cc(CNCCC(F)(F)F)cc(Cl)n1)C2 (single isomer, unassigned) , give its reported pIC50.
> 7.10

For the molecule Cc1ccc(-c2ccc3c(c2)C(=O)N(c2cc(CNCC4CC4)cc(C)n2)C3)c(-c2nncn2C)c1 , give its reported pIC50.
> 7.10

For the molecule Cn1cnnc1CC1(c2ccc3c(c2)C(=O)N(c2cc(CN4CC5(CCC5)C4)cc(C(F)(F)F)n2)C3)COC1 , give its reported pIC50.
5.30 to 6.52

For the molecule Cc1cc(CNCCC(F)(F)F)cc(N2Cc3ccc(C4(Cc5nncn5C)COC4)cc3C2=O)c1 , give its reported pIC50.
> 7.10

For the molecule Cc1cc(N2Cc3ccc(C4(Cc5nncn5C)COC4)cc3C2=O)cc2c1cnn2CCN(C)C , give its reported pIC50.
5.30 to 6.52

For the molecule Cc1cc(CNCC2CC2)cc(N2Cc3ccc(-c4ccc(C(F)(F)F)cc4-c4nncn4C)cc3C2=O)n1 , give its reported pIC50.
6.52 to 7.10

For the molecule C[C@@H](NCC1CC(F)(F)C1)c1cc(Cl)nc(N2Cc3ccc(C4(Cc5nncn5C)COC4)cc3C2=O)c1 (single isomer, unassigned) , give its reported pIC50.
> 7.10

For the molecule CN1CCN(Cc2cc(N3Cc4ccc(C5(Cc6nncn6C)COC5)cc4C3=O)nc(C(F)(F)F)c2)CC1=O , give its reported pIC50.
6.52 to 7.10

For the molecule Cn1cnnc1CC1(c2ccc3c(c2)C(=O)N(c2cc(CNC4CCCC4O)cc(Cl)n2)C3)COC1 (stereo not shown) [Compound 193] , give its reported pIC50.
> 7.10

For the molecule Cn1cnnc1C[C@]1(c2ccc3c(c2)C(=O)N(c2cc(CNCC4CCC4)cc(Cl)n2)C3)C[C@@H](C#N)C1 (single isomer, unassigned) , give its reported pIC50.
6.52 to 7.10

For the molecule Cc1cc(CNCC2CC(F)(F)C2)cc(N2Cc3ccc(-c4ccc(Cl)cc4-c4nncn4C)cc3C2=O)n1 , give its reported pIC50.
> 7.10

For the molecule Cn1cnnc1CC1(c2ccc3c(c2)C(=O)N(c2cc(CNc4nccs4)cc(Cl)n2)C3)COC1 , give its reported pIC50.
> 7.10

For the molecule Cc1cc(CN[C@H](CO)C(C)C)cc(N2Cc3ccc(-c4ccc(F)cc4-c4nncn4C)cc3C2=O)n1 , give its reported pIC50.
6.52 to 7.10

For the molecule Cn1cnnc1CC1(c2ccc3c(c2)C(=O)N(c2cc(CN4CCCC(CO)C4)cc(C(F)(F)F)n2)C3)COC1 (stereo not shown) , give its reported pIC50.
6.52 to 7.10

For the molecule [2H]C([2H])([2H])n1cnnc1-c1cc(F)ccc1-c1ccc2c(c1)C(=O)N(c1cc(CNCC3CC3)cc(C)n1)C2 , give its reported pIC50.
> 7.10

For the molecule C[C@H](N[C@@H](C)C1CC1)c1cc(Cl)nc(N2Cc3ccc(C4(Cc5nncn5C)COC4)cc3C2=O)c1 (single isomer, unassigned) , give its reported pIC50.
> 7.10
